Some compounds, each annotated with its measured pEC50.
MEASUREMENT TARGET: hTLR7 (Homo sapiens)
ASSAY SUMMARY: Activation activity test of hTLR7 (HEK-Blue hTLR7 cells, QUANTI-Blue OD650)
TEST CONTEXT: 24 hours incubation, read-out: TLR7 (EC50)
pEC50: −log10 of the molar value.
ENDPOINT LABEL: pEC50

>>> reported_measurement("O=c1[nH]c2cnc(OCCOCC3CC3)nc2n1Cc1ccc(CN2CCCC2)cc1")
"5.00 to 6.00"
>>> reported_measurement("COCCOc1ncc2[nH]c(=O)n(Cc3ccc(C(C)N4CCCC4)cc3)c2n1 (stereo not drawn)")
"6.00 to 9.00"
>>> reported_measurement("COCCOc1ncc2[nH]c(=O)n(Cc3ccc(CN4CC5CCC4C5)cc3)c2n1 (stereo not drawn)")
"5.00 to 6.00"
>>> reported_measurement("COCCOc1ncc2c(n1)n(Cc1ccc(CN3CCCC3)cc1)c(=O)n2C")
"< 4.00"
>>> reported_measurement("COCCOc1ncc2nc(N)n(Cc3ccc(CN4CCCC4)cc3)c2n1")
"4.00 to 5.00"
>>> reported_measurement("CCCCOc1ncc2[nH]c(=O)n(Cc3cccc(CN4CCCC4)c3)c2n1")
"< 4.00"
>>> reported_measurement("COCCOc1ncc2[nH]c(=O)n(Cc3ccc(CN4CCC[C@H]4C(=O)OC)cc3)c2n1")
"4.00 to 5.00"
>>> reported_measurement("O=c1[nH]c2cnc(OCCO)nc2n1Cc1ccc(CN2CCCC2)cc1")
"4.00 to 5.00"
>>> reported_measurement("COCCOc1ncc2[nH]c(=O)n(Cc3cccc(CN4CC[C@@H](F)C4)c3)c2n1")
"4.00 to 5.00"

* * *

MEASUREMENT TARGET: hTLR7 (Homo sapiens)
Sequence (Q9NYK1 27-1049): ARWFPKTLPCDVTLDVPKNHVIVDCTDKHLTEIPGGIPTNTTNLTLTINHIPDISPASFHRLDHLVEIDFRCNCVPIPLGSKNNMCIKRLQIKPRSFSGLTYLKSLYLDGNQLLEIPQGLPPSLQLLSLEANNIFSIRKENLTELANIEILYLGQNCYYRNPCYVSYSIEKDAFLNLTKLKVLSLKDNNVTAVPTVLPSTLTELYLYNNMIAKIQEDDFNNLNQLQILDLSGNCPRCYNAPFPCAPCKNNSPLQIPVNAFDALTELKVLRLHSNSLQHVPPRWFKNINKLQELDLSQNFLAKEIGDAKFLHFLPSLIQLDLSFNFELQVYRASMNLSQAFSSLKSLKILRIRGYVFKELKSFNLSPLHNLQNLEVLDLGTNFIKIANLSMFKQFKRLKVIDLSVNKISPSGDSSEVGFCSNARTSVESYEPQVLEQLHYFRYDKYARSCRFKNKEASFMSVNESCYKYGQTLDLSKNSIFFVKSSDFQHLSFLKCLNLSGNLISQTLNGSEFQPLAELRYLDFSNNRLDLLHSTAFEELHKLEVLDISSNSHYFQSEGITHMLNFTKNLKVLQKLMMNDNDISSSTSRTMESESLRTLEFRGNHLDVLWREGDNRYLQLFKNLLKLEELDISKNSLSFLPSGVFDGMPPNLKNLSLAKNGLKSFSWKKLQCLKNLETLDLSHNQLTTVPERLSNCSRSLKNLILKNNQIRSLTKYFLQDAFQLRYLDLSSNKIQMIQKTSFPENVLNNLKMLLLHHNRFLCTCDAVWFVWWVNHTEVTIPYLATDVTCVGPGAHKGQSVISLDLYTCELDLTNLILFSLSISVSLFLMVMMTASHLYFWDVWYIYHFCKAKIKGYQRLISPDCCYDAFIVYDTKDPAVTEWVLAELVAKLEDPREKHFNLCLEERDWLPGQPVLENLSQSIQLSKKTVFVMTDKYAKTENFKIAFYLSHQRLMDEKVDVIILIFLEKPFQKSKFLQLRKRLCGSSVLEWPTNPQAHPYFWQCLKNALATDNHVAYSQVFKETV
ASSAY SUMMARY: Activation activity test of hTLR7 (HEK-Blue hTLR7 cells, QUANTI-Blue OD650)
TEST CONTEXT: 24 hours incubation, read-out: TLR7 (EC50)
pEC50: −log10 of the molar value.
ENDPOINT LABEL: pEC50

>>> reported_measurement("CCN(CC)Cc1ccc(Cn2c(=O)[nH]c3cnc(OCCOC)nc32)cc1 [Example 10]")
"5.00 to 6.00"
>>> reported_measurement("COCCOc1ncc2[nH]c(=O)n(Cc3cccc(CN4CCCC4)c3)c2n1 [Example 18]")
"5.00 to 6.00"
>>> reported_measurement("COCCOc1ncc2[nH]c(=O)n(Cc3ccc(CN4CC[C@@H](O)C4)cc3)c2n1 [Example 6]")
"4.00 to 5.00"
>>> reported_measurement("CCCCOc1ncc2[nH]c(=O)n(Cc3ccc(CN4CCCC4)cc3)c2n1 [Example 66]")
"< 4.00"
>>> reported_measurement("CCCCSc1ncc2[nH]c(=O)n(Cc3cccc(CN4CCCC4)c3)c2n1 [Example 33]")
"< 4.00"
>>> reported_measurement("COCCOc1ncc2[nH]c(=O)n(Cc3ccc(CN4CCCC4)c(F)c3)c2n1 [Example 62]")
"5.00 to 6.00"
>>> reported_measurement("CC(C)OCCOc1ncc2[nH]c(=O)n(Cc3ccc(CN4CCCC4)cc3)c2n1 [Example 64]")
"5.00 to 6.00"
>>> reported_measurement("COCCOc1ncc2[nH]c(=O)n(Cc3ccc(C(C)N4CCCCC4)cc3)c2n1 (stereo not drawn) [Example 15]")
"6.00 to 9.00"
>>> reported_measurement("COCCCOc1ncc2[nH]c(=O)n(Cc3ccc(CN4CCCC4)cc3)c2n1 [Example 45]")
"6.00 to 9.00"

* * *

MEASUREMENT TARGET: hTLR7 (Homo sapiens)
Construct: host or cells: HEK-Blue hTLR7 (HEK293-derived reporter line)
ASSAY SUMMARY: Activation activity test of hTLR7 (HEK-Blue hTLR7 cells, QUANTI-Blue OD650)
Format: cell-based
TEST CONTEXT: 24 hours incubation, read-out: TLR7 (EC50)
Some compounds, each annotated with its measured EC50.
ENDPOINT LABEL: EC50

>>> reported_measurement("CCCn1c(=O)n(Cc2ccc(CN3CCCC3)cc2)c2nc(OCCOC)ncc21")
"> 100 µM"
>>> reported_measurement("COCCOc1nc(O)c2[nH]c(=O)n(Cc3ccc(CN4CCCC4)cc3)c2n1")
"10 to 100 µM"
>>> reported_measurement("COCCOCCOc1ncc2[nH]c(=O)n(Cc3cccc(CN4CCCC4)c3)c2n1")
"> 100 µM"
>>> reported_measurement("CCCCS(=O)(=O)c1ncc2[nH]c(=O)n(Cc3cccc(CN4CCCC4)c3)c2n1")
"> 100 µM"
>>> reported_measurement("O=c1[nH]c2cnc(OCCOC(F)(F)F)nc2n1Cc1ccc(CN2CCCC2)cc1")
"0.001 to 1 µM"
>>> reported_measurement("COCCOc1ncc2[nH]c(=O)n(C(C)c3ccc(CN4CCCC4)cc3)c2n1 (stereo not drawn)")
"10 to 100 µM"
>>> reported_measurement("COCCOc1ncc2[nH]c(=O)n(Cc3cccc(CN4CCC4)c3)c2n1")
"1 to 10 µM"
>>> reported_measurement("COCCOc1ncc2[nH]c(=O)n(Cc3ccc(CCN4CCCC4)cc3)c2n1")
"1 to 10 µM"
>>> reported_measurement("O=c1[nH]c2cnc(OCC3CCCO3)nc2n1Cc1ccc(CN2CCCC2)cc1 (stereo not drawn)")
"1 to 10 µM"
>>> reported_measurement("O=c1[nH]c2cnc(OCCOCC(F)(F)F)nc2n1Cc1ccc(CN2CCCC2)cc1")
"0.001 to 1 µM"
>>> reported_measurement("COCCNc1ncc2[nH]c(=O)n(Cc3cccc(CN4CCCC4)c3)c2n1")
"> 100 µM"
>>> reported_measurement("COCCOc1ncc2[nH]c(=O)n(Cc3cccc(CN4CCC[C@@H]4C(=O)OC)c3)c2n1")
"10 to 100 µM"
>>> reported_measurement("COCCOc1ccc2[nH]c(=O)n(Cc3ccc(CN4CCCC4)cc3)c2n1")
"> 100 µM"
>>> reported_measurement("COC(C)CCOc1ncc2[nH]c(=O)n(Cc3ccc(CN4CCCC4)cc3)c2n1 (stereo not drawn)")
"0.001 to 1 µM"
>>> reported_measurement("O=c1[nH]c2cnc(OCC3CCOCC3)nc2n1Cc1cccc(CN2CCCC2)c1")
"> 100 µM"

* * *

MEASUREMENT TARGET: hTLR7 (Homo sapiens)
ASSAY SUMMARY: Activation activity test of hTLR7 (HEK-Blue hTLR7 cells, QUANTI-Blue OD650)
TEST CONTEXT: 24 hours incubation, read-out: TLR7 (EC50)
Some compounds, each annotated with its measured EC50.
ENDPOINT LABEL: EC50

>>> reported_measurement("COCCOc1ncc2[nH]c(=O)n(Cc3cccc(CN4CCC[C@H]4C(=O)OC)c3)c2n1")
"> 100 µM"
>>> reported_measurement("COCCOc1ncc2[nH]c(=O)n(Cc3ccc(CN4CCC(F)(F)C4)cc3)c2n1")
"10 to 100 µM"
>>> reported_measurement("COCCOc1ncc2[nH]c(=O)n(Cc3ccc([C@H](C)N4CCCC4)cc3)c2n1")
"0.001 to 1 µM"
>>> reported_measurement("COCCOc1ncc2[nH]c(=O)n(Cc3cccc(CN4CCCCC4)c3)c2n1")
"10 to 100 µM"
